target: amylase from Aspergillus niger; construct: gene aamA; experiment: starch hydrolysis, glucose oxidase/peroxidase coupled, A510 microplate; format: biochemical; settings: 2% starch, phosphate pH 5.0, preincubation 20 min 45°C, then 30 min 50°C
Consider the reported IC50 of an entry and match it to a band in Low (below 20 µg/mL), Mid (20 µg/mL to below 40 µg/mL), High (40 µg/mL or more)

O=c1ccc2cc(O[C@@H]3O[C@H](CO)[C@@H](O)[C@H](O)[C@H]3O)c(O)cc2o1 [compound 14, aesculin] = High

Bin? O=C(/C=C/c1ccc(O)c(O)c1)O[C@@H]1C[C@](OC(=O)/C=C/c2ccc(O)c(O)c2)(C(=O)O)C[C@@H](O)[C@H]1O [compound 10, 1,5-di-O-caffeoylquinic acid] Mid

Could you tell me which band O=c1ccc2ccc(O)cc2o1 [compound 12, umbelliferone] belongs to? High

====

biological target: amylase from Aspergillus niger; construct: gene aamA; experiment: starch hydrolysis, glucose oxidase/peroxidase coupled, A510 microplate; type: biochemical; settings: 2% starch, phosphate pH 5.0, preincubation 20 min 45°C, then 30 min 50°C
Recorded IC50 for the following molecules
Only the number, expressed in µg/mL, is required.

# example entries with known answers
C[C@H]1O[C@H](O[C@H]2[C@H](O)[C@@H](O)[C@@H](O[C@H]3[C@H](O)[C@@H](O)C(O)O[C@@H]3CO)O[C@@H]2CO)[C@H](O)[C@@H](O)[C@@H]1N[C@H]1C=C(CO)[C@@H](O)[C@H](O)[C@H]1O (some centres unmarked) [Acarbose, reference compound] = 9.54
C[C@@H]1O[C@@H](OC[C@H]2O[C@@H](Oc3c(-c4ccc(O)c(O)c4)oc4cc(O)cc(O)c4c3=O)[C@H](O)[C@@H](O)[C@@H]2O)[C@H](O)[C@H](O)[C@H]1O = 89.85
O=c1ccc2cc(O)c(O)cc2o1 = 1.02
COc1cc(C(=O)OC[C@H]2OC(O)[C@H](O)[C@@H](O)[C@@H]2O)ccc1O (mixture of isomers) = 79.18
O=c1c(O[C@@H]2O[C@H](CO)[C@@H](O)[C@H](O)[C@H]2O)c(-c2ccc(O)c(O)c2)oc2cc(O)cc(O)c12 = 15.45
O=C(/C=C/c1ccc(O)c(O)c1)O[C@@H]1[C@H](O)C[C@@](O)(C(=O)O)C[C@H]1OC(=O)/C=C/c1ccc(O)c(O)c1 = 26.65

// IC50 lookup, key: "O=C(O)/C=C/c1ccc(O)c(O)c1" 2.53

Item "COc1cc(C(=O)O[C@@H]2O[C@H](CO)[C@@H](O)[C@H](O)[C@H]2O)ccc1O" has what recorded IC50? 73.69

For O=C(OC[C@H]1OC(O)[C@H](O)[C@@H](O)[C@@H]1O)c1ccc(O)c(O)c1 (some centres unmarked) , what is its reported IC50? 66.52

Entry "O=C(/C=C/c1ccc(O)c(O)c1)O[C@@H]1C[C@](O)(C(=O)O)C[C@@H](OC(=O)/C=C/c2ccc(O)c(O)c2)[C@H]1O" : reported IC50 = ? 25.63

# input molecule: "COc1cc(-c2oc3cc(O)cc(O)c3c(=O)c2O)ccc1O" ; wanted: its IC50 2.64

====

# IC50 per record follows
target: amylase from Aspergillus niger; construct: gene aamA; test: starch hydrolysis, glucose oxidase/peroxidase coupled, A510 microplate; format: biochemical; details: 2% starch, phosphate pH 5.0, preincubation 20 min 45°C, then 30 min 50°C
Report the figure in µg/mL without appending any unit label.

Reference set (3 entries):
CC(=O)OC[C@H]1O[C@@H](Oc2c(-c3ccc(O)c(O)c3)oc3cc(O)cc(O)c3c2=O)[C@H](O)[C@@H](O)[C@@H]1O [compound 19] = 32.70
O=C(O[C@@H]1O[C@H](CO)[C@@H](O)[C@H](O)[C@H]1O)c1ccc(O)c(O)c1 [compound 3, 1′-O-protocatechuoyl-β-D-glucopyranose] = 62.46
O=c1c(O)c(-c2ccc(O)c(O)c2)oc2cc(O)cc(O)c12 [compound 17, quercetin] = 1.79

Then there is this compound:
Field request: IC50 | item: COc1cc(-c2oc3cc(O)cc(O)c3c(=O)c2O[C@@H]2O[C@H](CO)[C@@H](O)[C@H](O)[C@H]2O)ccc1O [compound 22, isorhamnetin-3-O-β-D-glucopyranoside] 23.41

====

biological target: amylase from Aspergillus niger; construct: gene aamA; experiment: starch hydrolysis, glucose oxidase/peroxidase coupled, A510 microplate; format: biochemical; details: 2% starch, phosphate pH 5.0, preincubation 20 min 45°C, then 30 min 50°C
measure: IC50

In the examples that follow, each entry is paired with its recorded IC50.
O=C(O[C@@H]1O[C@H](CO)[C@@H](O)[C@H](O)[C@H]1O)c1ccc(O)cc1 [compound 1, 1′-O-p-hydroxybenzoyl-β-D-glucopyranose] = > 100 µg/mL
O=c1ccc2cc(O)c(O[C@@H]3O[C@H](CO)[C@@H](O)[C@H](O)[C@H]3O)cc2o1 = > 100 µg/mL
COc1cc(-c2oc3cc(O)cc(O)c3c(=O)c2O[C@@H]2O[C@H](CO[C@@H]3O[C@@H](C)[C@H](O)[C@@H](O)[C@H]3O)[C@@H](O)[C@H](O)[C@H]2O[C@@H]2O[C@@H](C)[C@H](O)[C@@H](O)[C@H]2O)ccc1O [compound 25, thyphaneoside] = > 100 µg/mL
COc1cc(-c2oc3cc(O)cc(O)c3c(=O)c2O[C@@H]2O[C@H](CO[C@@H]3O[C@@H](C)[C@H](O)[C@@H](O)[C@H]3O)[C@@H](O)[C@H](O)[C@H]2O)ccc1O [compound 24, narcissin] = > 100 µg/mL

Recorded IC50 of O=C(OC[C@H]1OC(O)[C@H](O)[C@@H](O)[C@@H]1O)c1ccc(O)cc1 (stereo partly drawn) [compound 2, 6′-O-p-hydroxybenzoyl-β-D-glucopyranose] , please. > 100 µg/mL
